The measurements presented in this section are drawn from patent US9511134B2.

Molecular target: DRB1*1101 (Homo sapiens, UniProt P01903+P01911, A100R/A169T/A87E/I96F/K41T/L162R/M171V/P40S/Q125H/Q178H/Q39Y/Q99D/R42S/S66Y/T262R/V115G/W38E)
Assay: biochemical
Type: binding
Details: read-out: IC50 nM to purified HLA DRB1*1101
Reported values of IC50 for individual entries
Give the value, in units of nM, as a plain number.

Can you share its IC50? I mean this compound: CC[C@H](C)[C@H](NC(=O)[C@H](CCSC)NC(=O)[C@H](CO)NC(=O)[C@@H](N)CCC(=O)O)C(=O)N[C@@H](CCC(=O)O)C(=O)N[C@@H](C)C(=O)N[C@@H](CCC(=O)O)C(=O)N[C@@H](CO)C(=O)N[C@@H](CO)C(=O)N[C@H](C(=O)N[C@@H](CCCCN)C(=O)N[C@@H](CCC(=O)O)C(=O)N[C@@H](CCCCN)C(=O)N[C@@H](CC(=O)O)C(=O)N[C@@H](CCSC)C(=O)O)C(C)C
12000

We next turn to a different compound, shown below.
What does the record list as IC50 for CC[C@H](C)[C@H](NC(=O)[C@H](CO)NC(=O)[C@H](CCC(N)=O)NC(=O)[C@H](CCC(=O)O)NC(=O)[C@H](CC(=O)O)NC(=O)[C@H](CCCNC(=N)N)NC(=O)CNC(=O)[C@H](CO)NC(=O)[C@@H](NC(=O)[C@@H](NC(=O)[C@H](CC(C)C)NC(=O)[C@H](CCC(N)=O)NC(=O)[C@@H](NC(=O)[C@@H](N)CC(C)C)[C@@H](C)CC)[C@@H](C)CC)C(C)C)C(=O)N[C@@H](C)C(=O)O ?
2010

----------
Attribute: IC50
Biological target: DRB1*1302 (Homo sapiens, UniProt P01903+P01911, A100E/A169T/K41T/L162R/M171V/P40S/Q125H/Q178H/Q39Y/Q99D/R42S/S66N/T262R/V115G/W38E/Y61H)
Sequence (P01903 26-254 limits assumed, other chains not shown): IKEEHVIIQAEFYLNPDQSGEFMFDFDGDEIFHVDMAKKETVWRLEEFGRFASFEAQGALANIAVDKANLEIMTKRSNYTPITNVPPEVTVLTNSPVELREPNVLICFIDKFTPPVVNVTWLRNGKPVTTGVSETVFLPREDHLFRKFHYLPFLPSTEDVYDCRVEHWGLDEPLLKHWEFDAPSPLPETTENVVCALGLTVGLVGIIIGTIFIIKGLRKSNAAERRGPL
Experiment: biochemical
Assay type: binding
Details: read-out: IC50 nM to purified HLA DRB1*1302
# include the unit after the value

Solved entries:
# get_value(readout='IC50', item= CC[C@H](C)[C@H](NC(=O)[C@H](CCC(N)=O)NC(=O)[C@H](CCC(=O)O)NC(=O)[C@@H](N)Cc1ccccc1)C(=O)N[C@H](C(=O)N[C@@H](Cc1ccccc1)C(=O)N[C@@H](CCSC)C(=O)N[C@@H](CCC(N)=O)C(=O)N[C@@H](C)C(=O)N[C@@H](CC(C)C)C(=O)N[C@@H](CCC(N)=O)C(=O)N[C@@H](CC(C)C)C(=O)N[C@@H](CC(C)C)C(=O)N[C@@H](CC(C)C)C(=O)N[C@@H](CCC(=O)O)C(=O)O)[C@@H](C)O )
1080 nM

What value of measured IC50 is listed for CC[C@H](C)[C@H](NC(=O)CNC(=O)[C@H](CCCNC(=N)N)NC(=O)[C@H](CCC(N)=O)NC(=O)[C@H](CO)NC(=O)[C@@H](NC(=O)[C@H](CC(N)=O)NC(=O)[C@H](CC(C)C)NC(=O)[C@@H](NC(=O)[C@H](CO)NC(=O)[C@@H](N)CCCNC(=N)N)[C@@H](C)CC)[C@@H](C)O)C(=O)N[C@@H](CC(C)C)C(=O)N[C@@H](CCC(=O)O)C(=O)N[C@@H](CC(=O)O)C(=O)N[C@@H](CCC(=O)O)C(=O)O ?
71 nM

Quick one: IC50 for CC[C@H](C)[C@H](NC(=O)[C@@H](NC(=O)[C@H](CCCNC(=N)N)NC(=O)[C@H](CCC(N)=O)NC(=O)[C@@H](NC(=O)[C@@H](NC(=O)[C@H](CCSC)NC(=O)[C@H](CCCCN)NC(=O)[C@H](CCCCN)NC(=O)[C@@H](N)[C@@H](C)O)C(C)C)[C@@H](C)O)[C@@H](C)O)C(=O)NCC(=O)N[C@@H](CCCCN)C(=O)N[C@@H](CCCCN)C(=O)N[C@@H](CCCCN)C(=O)N[C@@H](CCC(N)=O)C(=O)O ?
6120 nM

For the molecule shown here, CSCC[C@H](NC(=O)[C@H](CCCCN)NC(=O)[C@H](CO)NC(=O)[C@@H](N)C(C)C)C(=O)NCC(=O)N[C@H](C(=O)N[C@@H](CC(=O)O)C(=O)N[C@@H](CCC(=O)O)C(=O)N[C@@H](Cc1ccc(O)cc1)C(=O)N[C@@H](CO)C(=O)N[C@@H](CO)C(=O)N[C@H](C(=O)N[C@@H](CCC(=O)O)C(=O)N[C@@H](CCCNC(=N)N)C(=O)N[C@H](C(=O)O)C(C)C)[C@@H](C)O)C(C)C , give the reported IC50.
1850 nM

Please give the measured IC50 for this molecule: CC[C@H](C)[C@H](NC(=O)[C@H](CCC(N)=O)NC(=O)[C@H](Cc1ccc(O)cc1)NC(=O)[C@H](CCC(=O)O)NC(=O)[C@H](CC(C)C)NC(=O)[C@@H](N)CC(N)=O)C(=O)NCC(=O)N[C@@H](Cc1ccc(O)cc1)C(=O)N[C@H](C(=O)N[C@@H](CS)C(=O)N[C@@H](CO)C(=O)NCC(=O)N[C@H](C(=O)N[C@@H](Cc1ccccc1)C(=O)NCC(=O)O)C(C)C)[C@@H](C)CC
41 nM

Further cases:
Reported IC50, molecule CC[C@H](C)[C@H](NC(=O)[C@H](CC(N)=O)NC(=O)[C@H](Cc1ccc(O)cc1)NC(=O)[C@H](CC(C)C)NC(=O)[C@H](CC(N)=O)NC(=O)[C@@H]1CCCN1C(=O)CNC(=O)CNC(=O)[C@H](CC(=O)O)NC(=O)[C@H](CO)NC(=O)[C@@H](NC(=O)[C@H](CC(C)C)NC(=O)[C@H](CC(C)C)NC(=O)CNC(=O)[C@H](C)N)C(C)C)C(=O)O : ____
105 nM

Give the measured IC50 of CC[C@H](C)[C@H](NC(=O)[C@H](CC(C)C)NC(=O)[C@H](Cc1c[nH]c2ccccc12)NC(=O)[C@@H](NC(=O)[C@@H](NC(=O)[C@H](CC(N)=O)NC(=O)[C@H](CCCNC(=N)N)NC(=O)[C@H](Cc1ccccc1)NC(=O)[C@H](Cc1ccccc1)NC(=O)[C@H](CO)NC(=O)[C@H](CO)NC(=O)[C@@H](N)CCCCN)C(C)C)C(C)C)C(=O)N[C@@H](CCCCN)C(=O)N[C@@H](CCCCN)C(=O)N[C@@H](CC(N)=O)C(=O)O .
20 nM

Given the entry CC[C@H](C)[C@H](NC(=O)[C@H](CCCCN)NC(=O)[C@H](CC(N)=O)NC(=O)[C@H](C)NC(=O)[C@H](CCCCN)NC(=O)[C@H](CCC(=O)O)NC(=O)[C@H](CC(C)C)NC(=O)[C@H](Cc1ccc(O)cc1)NC(=O)[C@H](Cc1ccc(O)cc1)NC(=O)[C@@H](NC(=O)[C@H](Cc1c[nH]cn1)NC(=O)[C@@H](NC(=O)[C@H](CCC(=O)O)NC(=O)[C@H](CCCNC(=N)N)NC(=O)[C@@H](N)CCCNC(=N)N)C(C)C)[C@@H](C)CC)C(=O)O , report its measured IC50.
150 nM

State the recorded IC50 for this entry: CC[C@H](C)[C@H](NC(=O)[C@H](CCCNC(=N)N)NC(=O)[C@H](CCCCN)NC(=O)[C@H](CC(=O)O)NC(=O)[C@H](C)NC(=O)[C@@H](NC(=O)[C@@H](NC(=O)[C@@H]1CCCN1C(=O)[C@H](Cc1ccc(O)cc1)NC(=O)[C@@H](N)CCCCN)[C@@H](C)CC)[C@@H](C)O)C(=O)N[C@@H](CCSC)C(=O)N[C@@H](CCC(=O)O)C(=O)N[C@@H](CCSC)C(=O)N[C@H](C(=O)N1CCC[C@H]1C(=O)O)[C@@H](C)CC
68 nM
